assay: Selectivity ratio of IC50 for VEGF-stimulated human HepG2 cells to IC50 for VEGF-stimulated human A549 cells; format: functional

# structure_string, Ratio IC50
measured = [
    ("COc1ccc(CNC(=O)c2cc(Oc3ccc(/C=C/c4ccncc4)cc3)ccn2)cc1", ">5.2"),
    ("COc1ccc(NC(=O)c2cc(Oc3ccc(/C=C/c4ccncc4)cc3)ccn2)cc1", ">3.9"),
    ("O=C(Nc1ccccc1)c1cc(Oc2ccc(/C=C/c3ccncc3)cc2)ccn1", ">1.2"),
    ("CC(C)NC(=O)c1cc(Oc2ccc(/C=C/c3ccccn3)cc2)ccn1", ">4.7"),
    ("O=C(NCc1ccc(F)cc1)c1cc(Oc2ccc(/C=C/c3ccccn3)cc2)ccn1", "<0.5"),
    ("O=C(NCc1ccc(F)cc1)c1cc(Oc2ccc(/C=C/c3ccncc3)cc2)ccn1", 2),
    ("O=C(NC1CCCCC1)c1cc(Oc2ccc(/C=C/c3ccccn3)cc2)ccn1", 1.6),
    ("O=C(NCc1ccccc1)c1cc(Oc2ccc(/C=C/c3ccncc3)cc2)ccn1", 1.7),
]
